Values were extracted from paper PMC11252475.

biological target: hERG channel (Homo sapiens, UniProt Q12809); test: hERG potassium current inhibition; assay type: cell-based
Sequence (Q12809 whole entry): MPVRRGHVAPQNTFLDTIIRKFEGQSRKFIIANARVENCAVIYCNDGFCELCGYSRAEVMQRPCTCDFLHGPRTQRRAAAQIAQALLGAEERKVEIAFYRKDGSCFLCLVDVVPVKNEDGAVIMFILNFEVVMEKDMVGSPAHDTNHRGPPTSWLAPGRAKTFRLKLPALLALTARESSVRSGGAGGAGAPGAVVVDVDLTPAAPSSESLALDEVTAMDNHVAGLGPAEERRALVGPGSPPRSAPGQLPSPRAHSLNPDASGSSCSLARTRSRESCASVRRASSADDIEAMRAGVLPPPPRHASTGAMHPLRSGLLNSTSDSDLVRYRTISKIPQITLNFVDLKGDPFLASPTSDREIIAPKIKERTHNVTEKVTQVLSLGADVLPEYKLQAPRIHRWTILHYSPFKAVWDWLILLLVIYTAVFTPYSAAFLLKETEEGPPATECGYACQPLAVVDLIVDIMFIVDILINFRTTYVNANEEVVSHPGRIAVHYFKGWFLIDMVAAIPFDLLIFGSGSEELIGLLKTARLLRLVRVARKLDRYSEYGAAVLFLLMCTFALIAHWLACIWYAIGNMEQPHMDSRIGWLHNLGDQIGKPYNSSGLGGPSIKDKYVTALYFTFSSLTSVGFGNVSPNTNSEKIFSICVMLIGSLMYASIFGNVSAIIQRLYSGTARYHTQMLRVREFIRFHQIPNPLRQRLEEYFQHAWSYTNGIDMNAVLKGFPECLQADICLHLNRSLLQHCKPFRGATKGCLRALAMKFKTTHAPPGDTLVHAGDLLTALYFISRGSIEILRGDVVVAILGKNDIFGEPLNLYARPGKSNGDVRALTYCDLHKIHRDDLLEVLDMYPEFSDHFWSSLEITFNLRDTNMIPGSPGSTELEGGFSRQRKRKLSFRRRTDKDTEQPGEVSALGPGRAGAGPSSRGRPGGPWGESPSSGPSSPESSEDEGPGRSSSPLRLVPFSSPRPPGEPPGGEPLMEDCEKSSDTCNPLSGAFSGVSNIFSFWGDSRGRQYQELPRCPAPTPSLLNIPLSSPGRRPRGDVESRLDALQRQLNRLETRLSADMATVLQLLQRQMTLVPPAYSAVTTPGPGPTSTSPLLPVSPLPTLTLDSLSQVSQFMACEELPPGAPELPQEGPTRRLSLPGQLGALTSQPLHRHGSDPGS
assay-endpoint: inhibition at 100 μM/L (%)
Quick note: give the figure in %, leave out the unit.

## Input For the compound shown here, CCCCN1CCN(C(C)C(=O)Nc2c(C)csc2C(=O)OC)CC1 (stereo not shown) , give the reported inhibition at 100 μM/L.
## Output 38

----------
biological target: UniProtKB Q14524; assay: Cell membrane chromatography; type: binding; conditions: capacity factor k′; reflects potential cardiac toxicity; k′ < 0 labeled as 0
Sequence (Q14524 whole entry): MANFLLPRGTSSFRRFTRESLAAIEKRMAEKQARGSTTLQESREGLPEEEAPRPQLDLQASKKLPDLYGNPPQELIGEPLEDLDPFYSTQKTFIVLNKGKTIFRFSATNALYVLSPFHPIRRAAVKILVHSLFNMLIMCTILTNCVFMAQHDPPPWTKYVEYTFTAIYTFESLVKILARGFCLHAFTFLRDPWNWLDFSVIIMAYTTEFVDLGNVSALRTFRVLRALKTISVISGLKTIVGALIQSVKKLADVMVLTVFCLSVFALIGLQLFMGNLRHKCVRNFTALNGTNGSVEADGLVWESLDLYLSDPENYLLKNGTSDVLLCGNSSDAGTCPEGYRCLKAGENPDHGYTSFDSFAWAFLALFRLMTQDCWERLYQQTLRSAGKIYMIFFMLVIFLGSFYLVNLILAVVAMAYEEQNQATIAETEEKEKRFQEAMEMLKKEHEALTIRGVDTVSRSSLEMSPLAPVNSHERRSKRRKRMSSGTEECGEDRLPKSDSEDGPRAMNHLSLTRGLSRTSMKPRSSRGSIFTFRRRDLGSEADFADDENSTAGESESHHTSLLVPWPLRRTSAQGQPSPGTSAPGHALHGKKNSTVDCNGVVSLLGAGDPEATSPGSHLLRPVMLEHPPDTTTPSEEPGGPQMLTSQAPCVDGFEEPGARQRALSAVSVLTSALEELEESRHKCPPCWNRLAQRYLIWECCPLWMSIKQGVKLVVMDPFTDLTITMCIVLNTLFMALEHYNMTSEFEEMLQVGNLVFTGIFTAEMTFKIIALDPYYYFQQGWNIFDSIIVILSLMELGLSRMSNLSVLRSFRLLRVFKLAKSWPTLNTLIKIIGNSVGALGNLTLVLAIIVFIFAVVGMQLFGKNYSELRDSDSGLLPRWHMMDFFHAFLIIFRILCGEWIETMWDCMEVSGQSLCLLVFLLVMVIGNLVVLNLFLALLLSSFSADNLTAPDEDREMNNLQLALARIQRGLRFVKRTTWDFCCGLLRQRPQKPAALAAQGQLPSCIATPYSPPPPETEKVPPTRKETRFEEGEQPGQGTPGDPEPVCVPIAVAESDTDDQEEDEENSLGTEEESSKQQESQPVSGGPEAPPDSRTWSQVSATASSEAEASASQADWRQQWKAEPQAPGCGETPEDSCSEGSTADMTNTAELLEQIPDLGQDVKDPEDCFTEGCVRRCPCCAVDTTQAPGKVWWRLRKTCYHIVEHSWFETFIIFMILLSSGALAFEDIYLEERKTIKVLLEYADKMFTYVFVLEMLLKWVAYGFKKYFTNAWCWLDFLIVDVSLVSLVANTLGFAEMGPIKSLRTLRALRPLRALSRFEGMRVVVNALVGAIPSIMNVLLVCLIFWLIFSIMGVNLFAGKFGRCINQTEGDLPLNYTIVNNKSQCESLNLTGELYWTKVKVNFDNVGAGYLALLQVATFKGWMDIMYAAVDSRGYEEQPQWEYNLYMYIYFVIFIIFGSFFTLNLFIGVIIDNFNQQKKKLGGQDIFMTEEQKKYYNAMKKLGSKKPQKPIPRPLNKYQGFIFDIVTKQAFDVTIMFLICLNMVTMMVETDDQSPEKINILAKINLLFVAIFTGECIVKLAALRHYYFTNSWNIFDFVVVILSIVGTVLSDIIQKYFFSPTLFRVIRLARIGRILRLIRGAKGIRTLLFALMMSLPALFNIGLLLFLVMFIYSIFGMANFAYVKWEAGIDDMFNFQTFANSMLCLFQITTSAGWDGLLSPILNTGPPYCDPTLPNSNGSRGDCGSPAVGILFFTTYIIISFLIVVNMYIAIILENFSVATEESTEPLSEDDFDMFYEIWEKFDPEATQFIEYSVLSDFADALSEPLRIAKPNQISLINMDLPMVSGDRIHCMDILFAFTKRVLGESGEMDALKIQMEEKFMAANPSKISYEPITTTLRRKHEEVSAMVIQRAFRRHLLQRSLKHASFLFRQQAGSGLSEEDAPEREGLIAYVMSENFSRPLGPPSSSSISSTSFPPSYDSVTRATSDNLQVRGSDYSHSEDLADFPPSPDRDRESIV
assay-endpoint: k′ NaV1.5
Kindly provide the number alone.

## Input For the molecule shown here, CCC(C(=O)Nc1c(C)csc1C(=O)OC)N1CCN(C(C)C)CC1 (stereo not drawn) [AT-22] , give the reported k′ NaV1.5.
## Output 21.4

## Input For the molecule shown here, CCN(CCO)C(C)C(=O)Nc1c(C)csc1C(=O)OC (stereo not drawn) [AT-24] , give the reported k′ NaV1.5.
## Output 27.6

## Input For the molecule shown here, COC(=O)c1scc(C)c1NC(=O)C(C)N1CC(C)OC(C)(C)C1 (stereo not drawn) [AT-8] , give the reported k′ NaV1.5.
## Output 36.8

## Input For the molecule shown here, COC(=O)c1scc(C)c1NC(=O)C(C)N1CCN(CCO)CC1 (stereo not drawn) [AT-19] , give the reported k′ NaV1.5.
## Output 92

## Input For the molecule shown here, COC(=O)c1scc(C)c1NC(=O)C(C)N1CCOCC1 (stereo not drawn) [AT-5] , give the reported k′ NaV1.5.
## Output 18.4

## Input For the molecule shown here, COC(=O)c1scc(C)c1NC(=O)C(C)N1CCCCC1 (stereo not drawn) [AT-3] , give the reported k′ NaV1.5.
## Output 1.1
